Quick record: ΔTm, Cyclin-dependent kinase 6 (Homo sapiens) (UniProt Q00534).

# chem_smiles, ΔTm (°C)
measured = [
    ("Cc1cc2ncc(-c3ccccc3)nc2cc1C", 0.4),
    ("O=C(Nc1cccc(Nc2cc(Nc3cccc(C(F)(F)F)c3)ncn2)c1)C1CC1", 0.1),
    ("O=c1cc(-c2ccc(O)cc2)oc2cc(O)cc(O)c12", 0.4),
    ("C=CNC#N", 0.1),
    ("CCN1/C(=C/C(C)=O)Sc2ccc(OC)cc21", 0.4),
    ("O=C(O)c1cc(N(Cc2ccccc2O)Cc2cc(O)ccc2O)ccc1O", 0.4),
]
